// values below are reported Elevation of cloud point temperature
assay: Cloud point temperature of a 0.025M aqueous solution of polyoxyethylene(8)nonylphenyl ether with 5% by weight additive; type: physicochemical; conditions: table of extensibility results; additive at 5% w/w; in °C
OBSERVED PROPERTY: Elevation of cloud point temperature

* CC(O)C(=O)O (stereo not shown) [2-hydroxypropionic acid] | 11.5
* C[S+](C)[O-] [Dimethyl sulphoxide] | -0.5
* CC(O)CCC(C)O (stereo not shown) [Hexan-2,5-diol] | 18.5
* CC(O)CC(C)O (stereo not shown) [Pentan-2,4-diol] | 14.5
* OCCO [Ethan-1,2-diol] | -0.5
* O=C1CCCN1 [2-pyrrolidone] | 15.5
* CC(O)CO (stereo not shown) [Propan-1,2-diol] | 5.5
* OCC(O)CO [Propan-1,2,3-triol] | -1.3
* CC(O)COCC(C)O (stereo not shown) [Di(2-hydroxypropyl) ether] | 11.3
* CCCCO [Butan-1-ol] | 2.8

====

Listing: Elevation of cloud point temperature of selected compounds
experiment: Cloud point temperature of a 0.025M aqueous solution of polyoxyethylene(8)nonylphenyl ether with 5% by weight additive; type: physicochemical; details: Table 1; activity enhancer 5% by weight; control 33.5 °C.; in °C
OBSERVED PROPERTY: Elevation of cloud point temperature

* CCOC(=O)C(C)O (centres unmarked) [Ethyl-2hydroxypropanoate] | 18.6
* CC(C)=O [Acetone] | 12.8
* CC(C)O [Propan-2-ol] | 22.5
* CC(O)C(=O)O (centres unmarked) [2-hydroxypropionic acid] | 11.5
* CC(C)(C)O [2-methyl propan-2-ol] | 21.5

====

assay: Cloud point temperature of a 0.025M aqueous solution of polyoxyethylene(8)nonylphenyl ether with 5% by weight additive; format: physicochemical; conditions: Table 2; compound which is not an activity enhancer, 5% by weight
Use 40 °C as the dividing line for Cloud point temperature, with the line itself on the condition met side and lower values as condition not met.

- C[S+](C)[O-] [Dimethyl sulphoxide]: condition not met
- CCCCO [Butan-1-ol]: condition not met
- OC1CCCCC1 [Cyclohexanol]: condition not met
- CC(O)CCO (stereo not drawn) [Butan-1,3-diol]: condition met

====

The following compounds are listed with their measured Increase in stratum corneum extensibility values.
tested on: guinea pig foot pad stratum corneum; assay: Increase in extensibility of guinea pig foot pad stratum corneum; conditions: 0.2 M 2-hydroxyoctanoic acid + additive at 5% w/w; 3 hours at 20° C.; relative humidity 65%
OBSERVED PROPERTY: Increase in stratum corneum extensibility

* O=C1CCCN1 | 28.0
* C[S+](C)[O-] [Dimethyl sulphoxide] | 5
* CC(O)C(=O)O (stereo not shown) [2-hydroxypropionic acid] | 17.1
* CC(O)CCC(C)O (stereo not shown) | 37.0
* CCCCO | 13.2
* OCCO | 5
* CC(O)CC(C)O (stereo not shown) | 17.0
